The origin of these recorded values is the supplement of paper PMC6555819.

- Tested on: PPARg:RXRa 30nM:10nM, anti-RXR (NR concentration 30 nM, RXRa partner concentration 10 nM)
- ASSAY_SUMMARY: PBM binding z-score (relative to random genomic background probes); higher = stronger binding; sequences stand for … in GC…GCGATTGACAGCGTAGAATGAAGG
Respond with criterion met for PBM binding z-score values of -0.07 and above, criterion not met for values below.

Observe how each entry below is paired with its result.
CHAIN	GROUP_LABEL
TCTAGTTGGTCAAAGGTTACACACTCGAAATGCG	criterion met
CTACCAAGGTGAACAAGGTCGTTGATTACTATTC	criterion met
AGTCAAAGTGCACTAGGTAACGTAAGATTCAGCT	criterion met
CCTACTGGGTCAAGGTCATTGATCAGTCAAAGCA	criterion met

Please examine the following record next.
// query Reported PBM binding z-score at or above -0.07? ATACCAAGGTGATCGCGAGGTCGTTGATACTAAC
// result criterion not met

###

Provide the recorded PBM binding z-score for the entries that follow.
- Test system: PPARg:RXRa DBDmut IVT, anti-RXR (DBD mutation: RXRa K156A/R161A, NR concentration 270 nM, RXRa partner concentration 90 nM)
- ASSAY_SUMMARY: PBM binding z-score (relative to random genomic background probes); higher = stronger binding; sequences stand for … in GC…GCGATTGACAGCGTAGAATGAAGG

Consider the worked cases shown below.
CHAIN	RESULT
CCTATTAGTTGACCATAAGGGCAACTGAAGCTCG	0.175
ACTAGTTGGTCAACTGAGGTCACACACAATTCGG	2.42
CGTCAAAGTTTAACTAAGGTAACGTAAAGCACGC	0.271
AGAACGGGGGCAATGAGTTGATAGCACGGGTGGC	4.36
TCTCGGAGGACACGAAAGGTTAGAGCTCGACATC	1.49

For each of the sequences below, state PBM binding z-score.
1. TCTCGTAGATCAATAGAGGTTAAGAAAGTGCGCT
2. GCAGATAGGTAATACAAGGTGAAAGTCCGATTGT
3. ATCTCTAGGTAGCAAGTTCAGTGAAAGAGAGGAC
4. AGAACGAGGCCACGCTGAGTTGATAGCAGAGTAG
5. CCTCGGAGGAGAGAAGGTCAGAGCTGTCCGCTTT
6. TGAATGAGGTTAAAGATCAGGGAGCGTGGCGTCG
7. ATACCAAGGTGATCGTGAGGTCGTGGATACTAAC

// result
1. 1.66
2. 0.315
3. 0.208
4. 3.08
5. -0.223
6. 2.38
7. 0.55

###

- Tested on: RARg homodimer (NR concentration 270 nM)
- ASSAY_SUMMARY: PBM binding z-score (relative to random genomic background probes); higher = stronger binding; sequences stand for … in GC…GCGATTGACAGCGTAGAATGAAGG
Provide the recorded PBM binding z-score for the entries that follow.
Give bare numbers.

CHAIN	RECORDED_NUMBER
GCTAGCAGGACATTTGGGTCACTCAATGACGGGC	0.992

For each of the sequences below, state PBM binding z-score.
1. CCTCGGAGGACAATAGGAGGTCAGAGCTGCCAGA
2. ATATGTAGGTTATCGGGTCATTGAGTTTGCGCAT
3. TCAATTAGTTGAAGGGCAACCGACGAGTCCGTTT

// result
2.63
2.61
0.258

For each of the sequences below, state PBM binding z-score.
1. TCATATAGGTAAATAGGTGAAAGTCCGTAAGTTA
2. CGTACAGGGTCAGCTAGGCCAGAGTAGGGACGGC
3. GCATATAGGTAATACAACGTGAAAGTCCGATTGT
4. CGTCCAAGGTCAATGCTAGGTGAGTGAAAGCATT
5. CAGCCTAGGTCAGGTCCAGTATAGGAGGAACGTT

// result
[0.407, 4.77, 0.451, 6.07, 3.33]

For each of the sequences below, state PBM binding z-score.
1. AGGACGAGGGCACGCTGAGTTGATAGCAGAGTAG
2. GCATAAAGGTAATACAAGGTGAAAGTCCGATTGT

// result
2.67
0.92

// query GET PBM binding z-score | system: RARg homodimer (NR concentration 270 nM) | item: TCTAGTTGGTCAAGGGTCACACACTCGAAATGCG
// result 4.87
